src = paper PMC4984800

assay: First-in-human trial: pharmacokinetics in plasma and urine; format: in vivo; conditions: human, plasma, oral, 35 mg, Schedule 3, 35 mg, Day 22, N=4; median (range); read-out: T1/2 (converted)
readout-label: half-life (h)
Report the figure in h without appending any unit label.

[in] Dear colleague, I am looking for the recorded half-life of the following compound: COc1cccc2cc(-c3nc([C@H]4CC[C@H](C(=O)O)CC4)n4ncnc(N)c34)[nH]c12
[out] 11.1

###

Assay: First-in-human trial: pharmacokinetics in plasma and urine
Format: in vivo
Details: human, plasma, oral, 45 mg, Schedule 1, 45 mg, Day 3, N=3; median (range)
Method: Blood and urine samples were collected at prespecified time points for 24 h after initial dose and at days 2–3 (S2) and after multiple doses on days 3–4 (S1) and 22–23 (S3) across dose levels. Predose samples were collected on days 8, 15 and 22. […] Descriptive statistics were used to summarise the safety data, including all patients who received at least one dose of OSI-027. […] Response to treatment was evaluated according to Response Evaluation Criteria in Solid Tumors (RECIST) ([Therasse et al, 2000]).
readout-label: Cmax (ng/mL)
Report the figure in ng/mL without appending any unit label.

[in] Dear colleague, I am looking for the recorded Cmax of the following compound: COc1cccc2cc(-c3nc([C@H]4CC[C@H](C(=O)O)CC4)n4ncnc(N)c34)[nH]c12
[out] 3850
